Tested on: MCF7 complex spheroid growth, % test/control
Experiment: Anticancer human tumor MCF7 cell line growth inhibition [Asc];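 further: spheroids exposed to compounds for 7 days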
Settings: curve of first compound; second compound 0.1 µM
Each entry below lists one item and its recorded IC50 value.

Example cases with answers are listed next.
CCN1C(C(=O)NC23CCC(C(=O)O)(CC2)CC3)C(c2cccc(Cl)c2F)C2(C(=O)Nc3cc(Cl)ccc32)C12CCCCC2 (stereo not drawn) + CNC(C)C(=O)NC1CN(S(=O)(=O)c2cccc(S(=O)(=O)N3CCC4CCC(C(=O)NC(c5ccccc5)c5ccccc5)N4C(=O)C(NC(=O)C(C)NC)C3)c2)CCC2CCC(C(=O)NC(c3ccccc3)c3ccccc3)N2C1=O	< 9.49 nM
O=C(c1cc(Cc2n[nH]c(=O)c3ccccc23)ccc1F)N1CCN(C(=O)C2CC2)CC1 + Cc1c(S(C)(=O)=O)c(-c2cc(F)cc(N3CCN(c4ccc(NS(=O)(=O)c5ccc(NC(CCN6CCC(C(=O)OCCCP(=O)(O)O)CC6)CSc6ccccc6)c(S(=O)(=O)C(F)(F)F)c5)cc4)CC3)c2)c(-c2ccc(Cl)cc2)n1C(C)C	> 10000 nM

Kindly consider the entry below.
Data request: Identify the reported IC50 for the following entry. NC1CCC(NC2CC2c2ccccc2)CC1 (stereo not drawn) + CNC(C)C(=O)NC1CN(S(=O)(=O)c2cccc(S(=O)(=O)N3CCC4CCC(C(=O)NC(c5ccccc5)c5ccccc5)N4C(=O)C(NC(=O)C(C)NC)C3)c2)CCC2CCC(C(=O)NC(c3ccccc3)c3ccccc3)N2C1=O
Data returned: < 0.316 nM

---

Each entry below lists one item and its recorded viability, T/C value.
Tested on: MCF7 complex spheroid growth, % test/control
Test: Anticancer human tumor MCF7 cell line growth inhibition [Asc];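 further: spheroids exposed to compounds for 7 days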;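 on viability, T/C: 100% = DMSO vehicle control wells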
Details: second compound 0.0949 µM; first compound 10 µM; stronger effect = lower value
Give just the numeric value; % need not be written.

Example cases with answers are listed next.
O=C(c1cc(Cc2n[nH]c(=O)c3ccccc23)ccc1F)N1CCN(C(=O)C2CC2)CC1 + CCN1C(C(=O)NC23CCC(C(=O)O)(CC2)CC3)C(c2cccc(Cl)c2F)C2(C(=O)Nc3cc(Cl)ccc32)C12CCCCC2	44.5
C#Cc1c(F)ccc2cc(O)cc(-c3ncc4c(N5CC6CCC(C5)N6)nc(OCC56CCCN5CC(F)C6)nc4c3F)c12 (centres undefined) + CCN1C(C(=O)NC23CCC(C(=O)O)(CC2)CC3)C(c2cccc(Cl)c2F)C2(C(=O)Nc3cc(Cl)ccc32)C12CCCCC2	32.9
C=C(F)C(=O)N1CCN(c2nc(OCC3CCCN3C)nc3c2CCN(c2cccc4cccc(Cl)c24)C3)CC1CC#N (centres undefined) + CCN1C(C(=O)NC23CCC(C(=O)O)(CC2)CC3)C(c2cccc(Cl)c2F)C2(C(=O)Nc3cc(Cl)ccc32)C12CCCCC2	0.14

Kindly consider the entry below.
Data request: Look up MCF7 complex spheroid growth, % test/control data: viability, T/C of C=CC(=O)N1CCN(c2nc(=O)n(-c3c(C)ccnc3C(C)C)c3nc(-c4c(O)cccc4F)c(F)cc23)C(C)C1 (centres undefined) + CCN1C(C(=O)NC23CCC(C(=O)O)(CC2)CC3)C(c2cccc(Cl)c2F)C2(C(=O)Nc3cc(Cl)ccc32)C12CCCCC2 , then report it.
Data returned: 35.5

---

Tested on: MCF7 complex spheroid growth, % test/control
Assay: Anticancer human tumor MCF7 cell line growth inhibition [Asc];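 further: spheroids exposed to compounds for 7 days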;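 on viability, T/C: 100% = DMSO vehicle control wells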
Details: second compound 1 µM; first compound 0.316 µM; stronger effect = lower value
Each entry below lists one item and its recorded viability, T/C value.
Give just the numeric value; % need not be written.

Example cases with answers are listed next.
CNC(C)C(=O)NC1CN(S(=O)(=O)c2cccc(S(=O)(=O)N3CCC4CCC(C(=O)NC(c5ccccc5)c5ccccc5)N4C(=O)C(NC(=O)C(C)NC)C3)c2)CCC2CCC(C(=O)NC(c3ccccc3)c3ccccc3)N2C1=O (stereo not given) + Cc1c(S(C)(=O)=O)c(-c2cc(F)cc(N3CCN(c4ccc(NS(=O)(=O)c5ccc(NC(CCN6CCC(C(=O)OCCCP(=O)(O)O)CC6)CSc6ccccc6)c(S(=O)(=O)C(F)(F)F)c5)cc4)CC3)c2)c(-c2ccc(Cl)cc2)n1C(C)C	17.4
CCN1CCN(Cc2ccc(Nc3ncc(F)c(-c4cc(F)c5nc(C)n(C(C)C)c5c4)n3)nc2)CC1 + CNC(C)C(=O)NC1CN(S(=O)(=O)c2cccc(S(=O)(=O)N3CCC4CCC(C(=O)NC(c5ccccc5)c5ccccc5)N4C(=O)C(NC(=O)C(C)NC)C3)c2)CCC2CCC(C(=O)NC(c3ccccc3)c3ccccc3)N2C1=O	10.7
O=C(c1ccc(F)c(F)c1Nc1ccc(I)cc1F)N1CC(O)([C@@H]2CCCCN2)C1 + CNC(C)C(=O)NC1CN(S(=O)(=O)c2cccc(S(=O)(=O)N3CCC4CCC(C(=O)NC(c5ccccc5)c5ccccc5)N4C(=O)C(NC(=O)C(C)NC)C3)c2)CCC2CCC(C(=O)NC(c3ccccc3)c3ccccc3)N2C1=O	13
COc1c(OCCCN2CCOCC2)ccc2c3n(c(=NC(=O)c4cnc(N)nc4)nc12)CCN3 + CNC(C)C(=O)NC1CN(S(=O)(=O)c2cccc(S(=O)(=O)N3CCC4CCC(C(=O)NC(c5ccccc5)c5ccccc5)N4C(=O)C(NC(=O)C(C)NC)C3)c2)CCC2CCC(C(=O)NC(c3ccccc3)c3ccccc3)N2C1=O	9.23

Kindly consider the entry below.
Data request: Identify the reported viability, T/C for the following entry. COc1c(OCCCN2CCOCC2)ccc2c3n(c(=NC(=O)c4cnc(N)nc4)nc12)CCN3 + Cc1c(S(C)(=O)=O)c(-c2cc(F)cc(N3CCN(c4ccc(NS(=O)(=O)c5ccc(NC(CCN6CCC(C(=O)OCCCP(=O)(O)O)CC6)CSc6ccccc6)c(S(=O)(=O)C(F)(F)F)c5)cc4)CC3)c2)c(-c2ccc(Cl)cc2)n1C(C)C
Data returned: 12.9

---

Each entry below lists one item and its recorded viability, T/C value.
Tested on: MCF7 complex spheroid growth, % test/control
Experiment: Anticancer human tumor MCF7 cell line growth inhibition [Asc];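 further: spheroids exposed to compounds for 7 days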;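 on viability, T/C: 100% = DMSO vehicle control wells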
Conditions: second compound 0.03 µM; first compound 10 µM; stronger effect = lower value
Give just the numeric value; % need not be written.

C#Cc1c(F)ccc2cc(O)cc(-c3ncc4c(N5CC6CCC(C5)N6)nc(OCC56CCCN5CC(F)C6)nc4c3F)c12 (centres undefined) + CCN1C(C(=O)NC23CCC(C(=O)O)(CC2)CC3)C(c2cccc(Cl)c2F)C2(C(=O)Nc3cc(Cl)ccc32)C12CCCCC2	70.7
C=CC(=O)N1CCN(c2nc(=O)n(-c3c(C)ccnc3C(C)C)c3nc(-c4c(O)cccc4F)c(F)cc23)C(C)C1 (centres undefined) + CCN1C(C(=O)NC23CCC(C(=O)O)(CC2)CC3)C(c2cccc(Cl)c2F)C2(C(=O)Nc3cc(Cl)ccc32)C12CCCCC2	59.8
O=C(c1cc(Cc2n[nH]c(=O)c3ccccc23)ccc1F)N1CCN(C(=O)C2CC2)CC1 + CCN1C(C(=O)NC23CCC(C(=O)O)(CC2)CC3)C(c2cccc(Cl)c2F)C2(C(=O)Nc3cc(Cl)ccc32)C12CCCCC2	62.2

Kindly consider the entry below.
Data request: Look up MCF7 complex spheroid growth, % test/control data: viability, T/C of C=C(F)C(=O)N1CCN(c2nc(OCC3CCCN3C)nc3c2CCN(c2cccc4cccc(Cl)c24)C3)CC1CC#N (centres undefined) + CCN1C(C(=O)NC23CCC(C(=O)O)(CC2)CC3)C(c2cccc(Cl)c2F)C2(C(=O)Nc3cc(Cl)ccc32)C12CCCCC2 , then report it.
Data returned: 0.23

---

Tested on: MCF7 complex spheroid growth, % test/control
Assay: Anticancer human tumor MCF7 cell line growth inhibition [Asc];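 further: spheroids exposed to compounds for 7 days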;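 on viability, T/C: 100% = DMSO vehicle control wells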
Conditions: second compound 0.0316 µM; first compound 0.0316 µM; stronger effect = lower value
QUANTITY_NAME: viability, T/C (%)
Give just the numeric value; % need not be written.

O=C(c1ccc(F)c(F)c1Nc1ccc(I)cc1F)N1CC(O)([C@@H]2CCCCN2)C1 + CNC(C)C(=O)NC1CN(S(=O)(=O)c2cccc(S(=O)(=O)N3CCC4CCC(C(=O)NC(c5ccccc5)c5ccccc5)N4C(=O)C(NC(=O)C(C)NC)C3)c2)CCC2CCC(C(=O)NC(c3ccccc3)c3ccccc3)N2C1=O	13.3
CCN1CCN(Cc2ccc(Nc3ncc(F)c(-c4cc(F)c5nc(C)n(C(C)C)c5c4)n3)nc2)CC1 + CNC(C)C(=O)NC1CN(S(=O)(=O)c2cccc(S(=O)(=O)N3CCC4CCC(C(=O)NC(c5ccccc5)c5ccccc5)N4C(=O)C(NC(=O)C(C)NC)C3)c2)CCC2CCC(C(=O)NC(c3ccccc3)c3ccccc3)N2C1=O	9.67
C#Cc1c(F)ccc2cc(O)cc(-c3ncc4c(N5CC6CCC(C5)N6)nc(OCC56CCCN5CC(F)C6)nc4c3F)c12 (configuration not stated) + Cc1c(S(C)(=O)=O)c(-c2cc(F)cc(N3CCN(c4ccc(NS(=O)(=O)c5ccc(NC(CCN6CCC(C(=O)OCCCP(=O)(O)O)CC6)CSc6ccccc6)c(S(=O)(=O)C(F)(F)F)c5)cc4)CC3)c2)c(-c2ccc(Cl)cc2)n1C(C)C	96.2
O=C(c1cc(Cc2n[nH]c(=O)c3ccccc23)ccc1F)N1CCN(C(=O)C2CC2)CC1 + CNC(C)C(=O)NC1CN(S(=O)(=O)c2cccc(S(=O)(=O)N3CCC4CCC(C(=O)NC(c5ccccc5)c5ccccc5)N4C(=O)C(NC(=O)C(C)NC)C3)c2)CCC2CCC(C(=O)NC(c3ccccc3)c3ccccc3)N2C1=O	13.8
C=CC(=O)N1CCN(c2nc(=O)n(-c3c(C)ccnc3C(C)C)c3nc(-c4c(O)cccc4F)c(F)cc23)C(C)C1 (configuration not stated) + Cc1c(S(C)(=O)=O)c(-c2cc(F)cc(N3CCN(c4ccc(NS(=O)(=O)c5ccc(NC(CCN6CCC(C(=O)OCCCP(=O)(O)O)CC6)CSc6ccccc6)c(S(=O)(=O)C(F)(F)F)c5)cc4)CC3)c2)c(-c2ccc(Cl)cc2)n1C(C)C	101
Cn1ncnc1[C@H]1c2n[nH]c(=O)c3cc(F)cc(c23)N[C@@H]1c1ccc(F)cc1 + Cc1c(S(C)(=O)=O)c(-c2cc(F)cc(N3CCN(c4ccc(NS(=O)(=O)c5ccc(NC(CCN6CCC(C(=O)OCCCP(=O)(O)O)CC6)CSc6ccccc6)c(S(=O)(=O)C(F)(F)F)c5)cc4)CC3)c2)c(-c2ccc(Cl)cc2)n1C(C)C	50.7

Data request: Look up MCF7 complex spheroid growth, % test/control data: viability, T/C of NC1CCC(NC2CC2c2ccccc2)CC1 (configuration not stated) + Cc1c(S(C)(=O)=O)c(-c2cc(F)cc(N3CCN(c4ccc(NS(=O)(=O)c5ccc(NC(CCN6CCC(C(=O)OCCCP(=O)(O)O)CC6)CSc6ccccc6)c(S(=O)(=O)C(F)(F)F)c5)cc4)CC3)c2)c(-c2ccc(Cl)cc2)n1C(C)C , then report it.
Data returned: 99.9
